- TEST TARGET: UniProt Q8I5P8
- ASSAY COMMENT: Gi1-Gγ dissociation BRET assay in PfSR10-overexpressing HEK293 cells
- Assay type: cell-based
Peptide text beside a SMILES is read from it.
EXPERIMENTAL ENDPOINT: EC50

[[record]]
molecule = "CCN(CC)CCCC(C)Nc1ccnc2cc(Cl)ccc12 (centres unmarked)"
test_target = "UniProt Q8I5P8"
experimental_endpoint = "EC50"
reported_value = "750 pM"


Consider the record given below.
Asked: Write down EC50 measured for item NC(N)=NCCC[C@H](NC(=O)[C@H](Cc1ccccc1)NC(=O)[C@@H]1CCCN1C(=O)[C@H](CO)NC(=O)[C@H](Cc1ccccc1)NC(=O)CNC(=O)[C@@H]1CCCN1C(=O)[C@@H]1CCCN1C(=O)[C@@H](N)CCCN=C(N)N)C(=O)O [bradykinin] (H-RPPGFSPFR-OH)
Given back: 380 pM

====

- TEST TARGET: PbSR10 (Plasmodium berghei, UniProt A0A509AUP3)
- Sequence (A0A509AUP3 entry or part of it): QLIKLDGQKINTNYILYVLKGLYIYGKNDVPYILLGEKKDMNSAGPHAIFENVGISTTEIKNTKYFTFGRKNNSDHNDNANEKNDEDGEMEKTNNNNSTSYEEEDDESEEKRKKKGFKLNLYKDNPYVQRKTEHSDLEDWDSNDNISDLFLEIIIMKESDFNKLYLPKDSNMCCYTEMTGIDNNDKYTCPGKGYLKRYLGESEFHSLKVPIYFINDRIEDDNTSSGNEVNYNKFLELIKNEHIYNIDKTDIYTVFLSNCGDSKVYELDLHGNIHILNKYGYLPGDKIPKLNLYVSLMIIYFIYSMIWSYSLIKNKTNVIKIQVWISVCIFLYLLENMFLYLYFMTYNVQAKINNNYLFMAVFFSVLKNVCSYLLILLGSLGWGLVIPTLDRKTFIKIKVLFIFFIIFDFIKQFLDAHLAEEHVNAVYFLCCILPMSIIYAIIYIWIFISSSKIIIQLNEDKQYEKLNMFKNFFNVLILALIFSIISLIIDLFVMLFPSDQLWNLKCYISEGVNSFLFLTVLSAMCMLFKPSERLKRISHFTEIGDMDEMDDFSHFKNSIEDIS
- ASSAY COMMENT: GloSensor-cAMP assay in HEK293 cells overexpressing PbSR10
EXPERIMENTAL ENDPOINT: pEC50
Expect pEC50 as a plain number equal to -log10 of the molar concentration.

Asked: // fetch pEC50 given entry C[C@H]1[C@@H](O)O[C@@H]2O[C@@]3(C)CC[C@H]4[C@H](C)CC[C@@H]1[C@@]24OO3 [DHA, dihydroartemisinin]
Given back: 7.91

====

- TEST TARGET: UniProt A0A4V0KCI5
- Sequence (A0A4V0KCI5 entry or part of it): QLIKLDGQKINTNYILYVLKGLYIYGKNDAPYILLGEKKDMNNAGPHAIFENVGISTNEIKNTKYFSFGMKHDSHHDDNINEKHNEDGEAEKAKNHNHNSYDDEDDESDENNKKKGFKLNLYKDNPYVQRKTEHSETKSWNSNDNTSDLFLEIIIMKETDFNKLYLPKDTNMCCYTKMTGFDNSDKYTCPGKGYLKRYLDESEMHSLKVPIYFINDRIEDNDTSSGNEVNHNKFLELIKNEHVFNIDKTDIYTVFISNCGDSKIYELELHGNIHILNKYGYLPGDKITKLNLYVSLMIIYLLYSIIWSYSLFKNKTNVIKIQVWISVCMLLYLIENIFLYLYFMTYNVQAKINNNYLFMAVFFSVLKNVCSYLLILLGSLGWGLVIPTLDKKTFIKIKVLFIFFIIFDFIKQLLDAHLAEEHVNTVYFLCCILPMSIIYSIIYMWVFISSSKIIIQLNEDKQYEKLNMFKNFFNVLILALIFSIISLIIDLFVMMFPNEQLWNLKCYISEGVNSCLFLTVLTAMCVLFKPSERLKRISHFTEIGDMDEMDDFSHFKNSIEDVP
- ASSAY COMMENT: GloSensor-cAMP assay in HEK293 cells overexpressing PcSR10
- Type: cell-based
EXPERIMENTAL ENDPOINT: EC50 (nM)
Write the answer as a number in nM, unit excluded.

Asked: Specify EC50 for C[C@H]1[C@@H](O)O[C@@H]2O[C@@]3(C)CC[C@H]4[C@H](C)CC[C@@H]1[C@@]24OO3 [DHA, dihydroartemisinin] and stop.
Given back: 37.6

====

- TEST TARGET: PfSR10 (Plasmodium falciparum, UniProt Q8I5P8)
- Sequence (Q8I5P8 entry or part of it): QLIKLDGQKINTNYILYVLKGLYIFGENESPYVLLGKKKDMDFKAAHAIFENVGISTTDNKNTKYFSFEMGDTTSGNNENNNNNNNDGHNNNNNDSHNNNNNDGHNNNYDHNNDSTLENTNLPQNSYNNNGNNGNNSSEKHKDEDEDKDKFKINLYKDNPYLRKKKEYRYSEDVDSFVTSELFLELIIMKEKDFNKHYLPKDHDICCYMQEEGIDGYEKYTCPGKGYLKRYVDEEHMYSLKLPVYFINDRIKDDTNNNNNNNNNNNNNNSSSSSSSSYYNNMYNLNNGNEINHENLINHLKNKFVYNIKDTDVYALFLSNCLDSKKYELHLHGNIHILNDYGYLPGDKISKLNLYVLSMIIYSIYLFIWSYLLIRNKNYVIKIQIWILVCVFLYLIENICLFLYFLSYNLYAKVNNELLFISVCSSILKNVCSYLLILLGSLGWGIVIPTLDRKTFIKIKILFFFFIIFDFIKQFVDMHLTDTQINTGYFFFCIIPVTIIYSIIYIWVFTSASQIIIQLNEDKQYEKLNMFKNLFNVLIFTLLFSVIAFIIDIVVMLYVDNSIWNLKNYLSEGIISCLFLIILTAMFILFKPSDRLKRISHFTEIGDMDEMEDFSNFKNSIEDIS
- ASSAY COMMENT: GloSensor-cAMP assay, inhibition of forskolin-induced cAMP in PfSR10-overexpressing HEK293 cells
- Format: cell-based
- REPORTED CONDITIONS: HEK293 cells overexpressing PfSR10, mean ± SEM
EXPERIMENTAL ENDPOINT: cAMP inhibition Emax

Previously resolved entries follow.
[[record]]
compound = "C[C@H]1[C@@H](O)O[C@@H]2O[C@@]3(C)CC[C@H]4[C@H](C)CC[C@@H]1[C@@]24OO3 [DHA, dihydroartemisinin]"
experimental_endpoint = "cAMP inhibition Emax"
reported_value = "1.136 ± 0.06 × 10^3"

[[record]]
compound = "Clc1ccc2c(N3CCN(CCCN4CCN(c5ccnc6cc(Cl)ccc56)CC4)CC3)ccnc2c1.O=P(O)(O)O [PIP-TT, piperaquine-tetraphosphate-tetrahydrate]"
experimental_endpoint = "cAMP inhibition Emax"
reported_value = "1.070 ± 0.09 × 10^3"

[[record]]
compound = "COc1cc(NC(C)CCCN)c2ncccc2c1 (stereo not shown) [PQ, primaquine diphosphate]"
experimental_endpoint = "cAMP inhibition Emax"
reported_value = "1.153 ± 0.06 × 10^3"


Asked: Tell me its cAMP inhibition Emax given CCN(CC)CCCC(C)Nc1ccnc2cc(Cl)ccc12 (stereo not shown) as the entry.
Given back: 0.958 ± 0.03 × 10^3

====

- TEST TARGET: PfSR10 (Plasmodium falciparum)
- ASSAY COMMENT: GloSensor-cAMP assay, inhibition of forskolin-induced cAMP in PfSR10-overexpressing HEK293 cells
- Format: cell-based
- REPORTED CONDITIONS: inhibition of Fsk-induced cAMP elevation, HEK293 cells overexpressing PfSR10, mean ± SEM, n=3; read-out: cAMP inhibition EC50
EXPERIMENTAL ENDPOINT: pEC50
Please keep in mind that pEC50 is minus log10 of the molar concentration; only the number is needed.

Asked: # assay system PfSR10 (Plasmodium falciparum): give pEC50 of Clc1ccc2c(N3CCN(CCCN4CCN(c5ccnc6cc(Cl)ccc56)CC4)CC3)ccnc2c1.O=P(O)(O)O [PIP-TT, piperaquine-tetraphosphate-tetrahydrate]
Given back: 9.40

====

- TEST TARGET: PfSR10 (Plasmodium falciparum, UniProt Q8I5P8)
- ASSAY COMMENT: Gi1-Gγ dissociation BRET assay in PfSR10-overexpressing HEK293 cells
- Assay type: cell-based
- REPORTED CONDITIONS: HEK293 cells overexpressing PfSR10, mean ± SEM; read-out: Gi1-dissociation EC50
EXPERIMENTAL ENDPOINT: pEC50
Expect pEC50 as a plain number equal to -log10 of the molar concentration.

Asked: Determine its reported pEC50: Clc1ccc2c(N3CCN(CCCN4CCN(c5ccnc6cc(Cl)ccc56)CC4)CC3)ccnc2c1.O=P(O)(O)O [PIP-TT, piperaquine-tetraphosphate-tetrahydrate]
Given back: 8.04

====

- TEST TARGET: PfSR10 (Plasmodium falciparum)
- ASSAY COMMENT: GloSensor-cAMP assay, inhibition of forskolin-induced cAMP in PfSR10-overexpressing HEK293 cells
- Assay type: cell-based
Peptide text beside a SMILES is read from it.
Here the recorded EC50 is given for each entry.
Please give a number only; it is taken to be in nM.

Here's what some known entries look like.
[[record]]
compound = "CCN(CC)CCCC(C)Nc1ccnc2cc(Cl)ccc12 (stereo not shown)"
measure_unit = "nM"
reported_value = 36.6

[[record]]
compound = "COc1cc(NC(C)CCCN)c2ncccc2c1 (stereo not shown) [PQ, primaquine diphosphate]"
measure_unit = "nM"
reported_value = 17.4

[[record]]
compound = "C[C@H]1[C@@H](O)O[C@@H]2O[C@@]3(C)CC[C@H]4[C@H](C)CC[C@@H]1[C@@]24OO3 [DHA, dihydroartemisinin]"
measure_unit = "nM"
reported_value = 3.94


Asked: Report EC50 on PfSR10 (Plasmodium falciparum) for this entry: NC(N)=NCCC[C@H](NC(=O)[C@H](Cc1ccccc1)NC(=O)[C@@H]1CCCN1C(=O)[C@H](CO)NC(=O)[C@H](Cc1ccccc1)NC(=O)CNC(=O)[C@@H]1CCCN1C(=O)[C@@H]1CCCN1C(=O)[C@@H](N)CCCN=C(N)N)C(=O)O [bradykinin] (H-RPPGFSPFR-OH)
Given back: 1.82

====

Below is a list of entries, each paired with its recorded pEC50 value.
- TEST TARGET: PfSR10 (Plasmodium falciparum)
- ASSAY COMMENT: Gq-Gγ dissociation BRET assay in PfSR10-overexpressing HEK293 cells
- Assay type: cell-based
- Procedure: To characterize the G protein signalling properties of PfSR10, G protein BRET probes were generated according to previous publication.[50] The Gqo BRET probes were generated by replacing the six amino acids of the C- terminus of Gq -RlucII with those from GoA1, creating a chimeric Gqo-RlucII subunit.[51] HEK293 cells or COS-7 cells were co-transfected with PfSR10 and various G protein probes (Gi, Gq and Gqo). […] The BRET signal was calculated as the ratio of the GFP2 emission to Nluc emission.
Peptide text beside a SMILES is read from it.
In simple prose, pEC50 is minus the logarithm base ten of a concentration in moles per litre.

[[record]]
molecule = "C[C@H]1[C@@H](O)O[C@@H]2O[C@@]3(C)CC[C@H]4[C@H](C)CC[C@@H]1[C@@]24OO3 [DHA, dihydroartemisinin]"
experimental_endpoint = "pEC50"
reported_value = 8.70


// next item, pEC50 requested
Asked: Report measured pEC50; entry is NC(N)=NCCC[C@H](NC(=O)[C@H](Cc1ccccc1)NC(=O)[C@@H]1CCCN1C(=O)[C@H](CO)NC(=O)[C@H](Cc1ccccc1)NC(=O)CNC(=O)[C@@H]1CCCN1C(=O)[C@@H]1CCCN1C(=O)[C@@H](N)CCCN=C(N)N)C(=O)O [bradykinin] (H-RPPGFSPFR-OH)
Given back: 9.28
